Origin of the recorded values: patent US20220106398A1

Target: T1, human His6-GITR (human, UniProt Q9Y5U5 26-162)
T1 construct: His6-tagged recombinant protein; also called hGITR-His; human GITR-His
T1 sequence: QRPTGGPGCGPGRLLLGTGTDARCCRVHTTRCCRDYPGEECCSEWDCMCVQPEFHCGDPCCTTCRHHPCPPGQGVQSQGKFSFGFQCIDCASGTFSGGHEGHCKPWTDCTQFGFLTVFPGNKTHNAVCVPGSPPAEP
Assay: CARTERRA LSA, scFv periplasmic extract
result_type: log10(Kd) (log10 of the value in nM)
Friendly reminder: values = log10 of Kd, unit nM.

[[record]]
binder = "GITR-Mab-7 scFv (scFv, V domains shown, scFv in periplasmic extract, V5 tag) VH: QVQLVQSGAEVKKPGASVKVSCKASGGTSSTYAVTWVRQAPGQGLEWMGVINPNDGSTTYAQNFQGRVTMTRDTSTSTVYMELSSLRSEDTAVYYCARWTPLFGVVIPDYYYYGMDVWGQGTLVTVSS VL: DIQMTQSPSSLSASVGDRVTITCQASQDISNYLNWYQQKPGKAPKLLIYAASSLQSGVPSRFSGSGSGTDFTLTISSLQPEDFATYYCQQSYSTPPTFGQGTRLEIK"
endpoint_result = 1.06

[[record]]
binder = "GITR-Mab-3 scFv (scFv, V domains shown, scFv in periplasmic extract, V5 tag) VH: QVQLVQSGAEVKKPGASVKVSCKASGYTFTSYDINWVRQAPGQGLEWMGWISGYNGNTNYAQKFQGRVTMTRDTSTSTVYMELSSLRSEDTAVYYCARSHEYYYYYGMDVWGQGTLVTVSS VL: EIVMTQSPATLSVSPGERATLSCRASQSVSSSYLAWYQQKPGQAPRLLIYGASTRATGIPARFSGSGSGTEFTLTISSLQSEDFAVYYCQQYYTTPFTFGPGTKVDIK"
endpoint_result = 1.02

[[record]]
binder = "GITR-Mab-14 scFv (scFv, V domains shown, scFv in periplasmic extract, V5 tag) VH: EVQLLESGGGLVKPGGSLRLSCAASGFRFSVYWMSWVRQAPGKGLEWVSGISGSGGTTYYADSVKGRFTISRDDSKNTLYLQMNSLKTEDTAVYYCARVRRDGYNYNFDYWGQGTLVTVSS VL: DIQMTQSPSSLSASVGDRVTITCQASQDISNYLNWYQQKPGKAPKLLIFDASSLEAGVPSRFSGSGSGTDFTLTISSLQPEDFATYYCQQANSFPPTFGQGTEVEIK"
endpoint_result = 1.48

[[record]]
binder = "GITR-Mab-24 scFv (scFv, V domains shown, scFv in periplasmic extract, V5 tag) VH: QVQLVQSGAEVKKPGASVKVSCKASGGTFNNYAINWVRQAPGQGLEWMGTINPRDGDTTYAQKFQGRVTMTRDTSTSTVYMELSSLRSEDTAVYYCARVGYYGSGSYYSYYGMDVWGQGTTVTVSS VL: DIQMTQSPSSLSASVGDRVTITCRASQNITNWLAWYQQKPGKAPKLLIYAASSLQSGVPSRFSGSGSGTDFTLTISSLQPEDFATYYCQQAYSFPWTFGQGTKVEIK"
endpoint_result = 1.59


I have 3 binders here; please give me log10(Kd) for each one.
1. GITR-Mab-21 scFv (scFv, V domains shown, scFv in periplasmic extract, V5 tag) VH: EVQLLESGGGLVQPGGSLRLSCAASGFTFSNHYMSWVRQAPGKGLEWVAVIALDGSYRYYADSVKGRFTISRDNSKNTLYLQMNSLRAEDTAVYYCARVGPGGMDVRGQGTTVTVSS VL: DIQMTQSPSSLSASVGDRVTITCQASQDISNYLNWYQQKPGKAPKLLIYAASSLQSGVPSRFSGSGSGTDFTLTISSLQPEDFATYYCQQSYNSPRVYTFGQGTKVEIK
2. GITR-Mab-12 scFv (scFv, V domains shown, scFv in periplasmic extract, V5 tag) VH: QVQLVQSGAEVKKPGASVKVSCKASGYTFTSYAINWVRQAPGQGLEWMGILSPSGGGTSYAPKFQGRVTMTRDTSTSTVYMELSSLRSEDTAVYYCARGPWYFDLWGRGTLVTVSS VL: DIQMTQSPSSLSASVGDRVTITCRASQGISNSLAWYQQKPGKAPKLLIYAASSLQSGVPSRFSGSGSGTDFTLTISSLQPEDFATYYCQQSYSTPFTFGPGTKVDIK
3. GITR-Mab-22 scFv (scFv, V domains shown, scFv in periplasmic extract, V5 tag) VH: QVQLVQSGAEVKKPGASVKVSCKASGGRFSTYALSWVRQAPGQGLEWMGIINPTDGSTTYAQKFQGRVTMTRDTSTSTVYMELSSLRSEDTAVYYCARDVYSSSWYSDYWGQGTLVTVSS VL: DIQMTQSPSSLSASVGDRVTITCRASQSISNWLAWYQQKPGKAPKLLIYAASTLQSGVPSRFSGSGSGTDFTLTISSLQPEDFATYYCQQSYSVPFTFGPGTKVDIK

Result:
1. 0.46
2. 0.88
3. 0.36

Lab note: each binder below needs its log10(Kd) filled in.
1. GITR-Mab-18 scFv (scFv, V domains shown, scFv in periplasmic extract, V5 tag) VH: EVQLLESGGGLVKPGGSLRLSCAASGFTFSSYWMSWVRQAPGKGLEWVSGISWNGGTVGYADSVKGRFTISRDDSKNTLYLQMNSLKTEDTAVYYCAKLGIAVKSHWYFDLWGRGTLVTVSS VL: DIQMTQSPSSLSASVGDRVTITCRASESISTWLAWYQQKPGKAPKLLIYAASSLQSGVPSRFSGSGSGTDFTLTISSLQPEDFATYYCQQSYTLPLTFGGGTKLEIK
2. GITR-Mab-10 scFv (scFv, V domains shown, scFv in periplasmic extract, V5 tag) VH: QVQLVQSGAEVKKPGASVKVSCKASGYTFTSNYMHWVRQAPGQGLEWMGWMNPNSGNTAYAQKFQGRVTMTRDTSTSTVYMELSSLRSEDTAVYYCARGRGGQLLFDYWGQGTLVTVSS VL: DIQMTQSPSSLSASVGDRVTITCRASQGISSWLAWYQQKPGKAPKLLIYAASTLQSGVPSRFSGSGSGTDFTLTISSLQPEDFATYYCQQYNSYSTFGQGTKVEIK
3. GITR-Mab-16 scFv (scFv, V domains shown, scFv in periplasmic extract, V5 tag) VH: QVQLVQSGAEVKKPGASVKVSCKASGGTLSSYAISWVRQAPGQGLEWMGWIDPNSGGTNYAQKFQGRVTMTRDTSTSTVYMELSSLRSEDTAVYYCARQGLLWFGESGSIYYYYGMDVWGQGTTVTVSS VL: DIQMTQSPSSLSASVGDRVTITCRASRSISNYLNWYQQKPGKAPKLLIYGASSLQSGVPSRFSGSGSGTDFTLTISSLQPEDFATYYCQQSYSTLVTFGQGTKVEIK

Result:
1. 0.00
2. 0.72
3. -0.10
